All values here come from PubChem BioAssay AID2100.

assayed-system: Lysosomal alpha-glucosidase (Homo sapiens) (UniProt P10253)
assay-explanation: qHTS Assay for Inhibitors and Activators of Human alpha-Glucosidase Cleavage of Glycogen;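 note: the screen sought inhibitors and activators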
cond: recombinant GAA, glycogen substrate, Amplex Red glucose oxidase fluorescence; series mostly up to 76.3 µM
The whole screen tested about 300,000 compounds, of which about 1,200 (0.4%) were called active. Another 3% or so got no clear call; they are omitted. Calls come from the whole dose curve; as a rule, active = well fitted inhibition curve with a large enough effect; inconclusive = small, poorly fitted or top-dose-only effect, or another doubt; inactive = no such curve, though single readings can be large or run the other way. The full list was thinned out, with actives kept by preference.
Labels: active, inactive

[
  {
    "chem-smiles": "CCN(CCCNC(=O)c1cc2cc3cc(OC)ccc3nc2s1)c1ccccc1",
    "assayed-system": "Lysosomal alpha-glucosidase (Homo sapiens) (UniProt P10253)",
    "assigned-class": "inactive"
  },
  {
    "chem-smiles": "CC(=O)c1ccc(NC(=O)Nc2ccc([N+](=O)[O-])cc2C)cc1",
    "assayed-system": "Lysosomal alpha-glucosidase (Homo sapiens) (UniProt P10253)",
    "assigned-class": "inactive"
  },
  {
    "chem-smiles": "COc1ccc(-c2csc(Cc3nc(O)cs3)n2)cc1",
    "assayed-system": "Lysosomal alpha-glucosidase (Homo sapiens) (UniProt P10253)",
    "assigned-class": "inactive"
  },
  {
    "chem-smiles": "Cc1cccc(C(=O)NCCc2nc3ccccc3n2Cc2ccccc2Cl)c1",
    "assayed-system": "Lysosomal alpha-glucosidase (Homo sapiens) (UniProt P10253)",
    "assigned-class": "inactive"
  },
  {
    "chem-smiles": "COc1ccc(Cl)cc1NC(=O)CSc1nc(-c2cccs2)cc(C(F)(F)F)n1",
    "assayed-system": "Lysosomal alpha-glucosidase (Homo sapiens) (UniProt P10253)",
    "assigned-class": "inactive"
  },
  {
    "chem-smiles": "CCN(CC)S(=O)(=O)c1cc([N+](=O)[O-])ccc1N=Nc1c(O)n(C)c2ccccc12",
    "assayed-system": "Lysosomal alpha-glucosidase (Homo sapiens) (UniProt P10253)",
    "assigned-class": "inactive"
  },
  {
    "chem-smiles": "COc1cccc(CC(=O)Nc2nc(-c3ccc(OC)c(OC)c3)cs2)c1",
    "assayed-system": "Lysosomal alpha-glucosidase (Homo sapiens) (UniProt P10253)",
    "assigned-class": "inactive"
  },
  {
    "chem-smiles": "CCN(CC)S(=O)(=O)c1cc([N+](=O)[O-])ccc1NNC(=O)Nc1ccccc1",
    "assayed-system": "Lysosomal alpha-glucosidase (Homo sapiens) (UniProt P10253)",
    "assigned-class": "active"
  },
  {
    "chem-smiles": "COc1ccc(S(=O)(=O)Nc2cc3c(C(=O)OC(C)C)c(C)oc3c3ccccc23)cc1",
    "assayed-system": "Lysosomal alpha-glucosidase (Homo sapiens) (UniProt P10253)",
    "assigned-class": "inactive"
  },
  {
    "chem-smiles": "COc1ccc2c(c1)Cc1sc(NC(=O)c3ccccc3Br)nc1-2",
    "assayed-system": "Lysosomal alpha-glucosidase (Homo sapiens) (UniProt P10253)",
    "assigned-class": "inactive"
  }
]
